Kindly state TGI for each of the entries shown.
- Test system: DU-145 prostate
- TEST SUMMARY: NCI tumour cell line growth inhibition, 48 h

Use the examples below as a reference point.
[
  {
    "COMPOUND": "O=C1CCSc2nc(-c3ccc4c(c3)OCO4)nn21",
    "ENDPOINT NAME": "TGI",
    "READOUT VALUE": "> 10 µM"
  },
  {
    "COMPOUND": "O=C(c1cccs1)c1nc2cc(Cl)ccc2[n+]([O-])c1C(F)(F)F",
    "ENDPOINT NAME": "TGI",
    "READOUT VALUE": "> 100 µM"
  },
  {
    "COMPOUND": "Cc1ccc(NC(=O)c2nc(S(C)(=O)=O)oc2-c2ccc(F)cc2)cc1Nc1ccc2ncn(C)c(=O)c2c1",
    "ENDPOINT NAME": "TGI",
    "READOUT VALUE": "3.09 µM"
  },
  {
    "COMPOUND": "Cc1cnc2c(c1)C(=O)N(c1ccc([N+](=O)[O-])cc1)S2(=O)=O",
    "ENDPOINT NAME": "TGI",
    "READOUT VALUE": "> 100 µM"
  },
  {
    "COMPOUND": "Cc1cc(C(O)(c2ccc(Nc3ccccc3)cc2)c2ccc(Nc3ccc(S(=O)(=O)O)cc3)cc2)ccc1N (centres undefined)",
    "ENDPOINT NAME": "TGI",
    "READOUT VALUE": "2.67 µM"
  },
  {
    "COMPOUND": "C/C(=C\\CNc1ncnc2c1ncn2CCC(=O)OC(C)(C)C)CO",
    "ENDPOINT NAME": "TGI",
    "READOUT VALUE": "> 100 µM"
  },
  {
    "COMPOUND": "NCCCn1c2c(c3ccc([N+](=O)[O-])cc3c1=O)C(=O)c1cc(F)ccc1-2",
    "ENDPOINT NAME": "TGI",
    "READOUT VALUE": "0.451 µM"
  },
  {
    "COMPOUND": "COc1ccc2c(c1)-c1nc(=O)n(CCCN(C)C)c3ccc([N+](=O)[O-])c(c13)N2",
    "ENDPOINT NAME": "TGI",
    "READOUT VALUE": "17.1 µM"
  }
]

Give TGI for each listed item.
1. Cc1c(-c2nc(N)c(C#N)c(N)c2C#N)c(=O)oc2ccccc12
2. O=C(/C=C/c1nnc2n(Cc3ccccc3)c(=O)c3c4c(sc3n12)CCCC4)c1ccccc1
3. Cc1cc(C)nc(NCCC(O)(P(=O)(O)O)P(=O)(O)O)n1
4. C=C1CC(C)(COc2cc(=O)oc3ccccc23)OC1=O (centres undefined)
5. CCOC(=O)C1=CNC(C(=O)OCC)C1c1cccn1-c1ccccc1 (centres undefined)

["> 100 µM", "> 100 µM", "> 100 µM", "19 µM", "> 100 µM"]

Give TGI for each listed item.
1. O=C1/C(=C/c2ccc(Cl)cc2)N=C(c2ccccc2)N1/N=C/c1ccccc1O
2. N#CCC1C2CC3C(C2=O)C13 (centres undefined)
3. CO[C@H]1O[C@@H]2OC3(C)CCC4[C@H](C)CCC([C@H]1C)[C@]42OO3 (some centres undefined)

1: > 100 µM; 2: > 100 µM; 3: > 100 µM

Give TGI for each listed item.
1. COc1ccc(C2CC(c3ccc4ccccc4c3)=NN2c2nc(O)c(C3=c4cc(OC)ccc4=NC3=O)s2)cc1 (centres undefined)
2. O=C(O)CNCCc1ccccc1
3. CN1C(C)(C)CC(=O)C(Br)C1(C)C (centres undefined)
4. Cc1cc(C)c(S(=O)(=O)N(CCCN)OCCON(CCCN)S(=O)(=O)c2c(C)cc(C)cc2C)c(C)c1

14.1 µM
> 100 µM
> 100 µM
> 100 µM

Give TGI for each listed item.
1. Cc1cccc2c1c(=O)c1c(O)cc3c(c1n2C)C=CC(C)(C)O3
2. COc1ccc(NS(=O)c2c(C)cc(C)cc2C)cc1 (centres undefined)
3. COc1ncc(-c2ccc3nccc(C#CCN4CCN(S(C)(=O)=O)CC4)c3c2)cc1NS(=O)(=O)c1ccc(F)cc1F
4. c1ccc2nn(C3CCCO3)nc2c1 (centres undefined)
5. CN1c2ccccc2C(=O)NC12CCNCC2
6. CC(C)OCc1cc(CN2CCN(c3cccc(Cl)c3)CC2)c(O)c2ncccc12
7. COc1cc(/C=C/C(=O)c2c(C)nc3ccccc3c2C)ccc1OCCCCOc1cc2c(cc1OC)C(=O)N1CCC[C@H]1C=N2

> 100 µM
> 100 µM
12.6 µM
> 100 µM
> 100 µM
14.7 µM
1.13 µM

Give TGI for each listed item.
1. O=C(O)c1cn(C2CC2)c2cc(N3CCN(C(=O)Nc4nc(-c5ccc(Br)cc5)cs4)CC3)c(F)cc2c1=O
2. O=C(O)c1cccc(OCCOc2cccc(C(=O)O)c2[N+](=O)[O-])c1[N+](=O)[O-]
3. O=C1C=CC(=O)N1c1ccc(I)cc1
4. Oc1c(Cl)c(Cl)c(O)c(CCNc2nccs2)c1Cl
5. O=C1CCN2C(=N1)Sc1ccccc12
6. CC(Cc1cccc2c1Nc1ccccc1S2)N(C)CCO (centres undefined)
7. C/C(=N\O)c1cccc(Nc2cc(-c3ccccc3)nc3c(O)cccc23)c1

1. > 100 µM
2. > 100 µM
3. 38 µM
4. 19.8 µM
5. > 100 µM
6. > 100 µM
7. 16.6 µM
